Assay: Human HepG2 cell viability assay in 384 well format
Assay type: toxicity, cell-based
Design: dose 125 nL, time 70.5 hour; concentration not given beside the values
Conditions: HepG2 cells, read-out: Inhibition
Provide the reported cytotoxicity at 70.5 h of each item.
Numbers only, in %.

Below, each entry is followed by its recorded cytotoxicity at 70.5 h result.
compound | value_measured
CCOc1ccc(CN2CCc3nc4ccsc4c(=O)n3CC2)cc1 | -6.57
CCOc1c(F)cccc1C(=O)N(CC)C(C)c1ccncc1 (stereo unspecified) | -4.06
COCCN1CCN(C(C)C(=O)Nc2ccnn2C(C)C)CC1 (stereo unspecified) | 1.69
Cc1ccsc1[C@@H]1CCN(C(=O)CCCn2cncn2)C[C@H]1O | -7.81

Working through the 7 compounds below one at a time, give cytotoxicity at 70.5 h for each.
1. CN1CC(c2ccccc2)C2(CCN(C(=O)c3ccc[nH]3)CC2)C1=O (stereo unspecified)
2. O=C(C1CCCO1)N1CCC2(CC1)CNCCO2 (stereo unspecified)
3. Cc1cc(CSC2CCCN(c3cnn(C)c3)C2=O)no1 (stereo unspecified)
4. CN1C[C@@H](NC(=O)C2CC2)C[C@H]1c1nc(-c2cnccn2)no1
5. CC(C)c1ccc(-n2cc(O)c(C(=O)N3CCC(C(N)=O)CC3)n2)cc1
6. O=C(N1CCCC1)N1Cc2nccn2CC(Cn2ncccc2=O)C1 (stereo unspecified)
7. COCC(c1cccc(C(F)(F)F)c1)N(C)C(=O)c1cnccn1 (stereo unspecified)

1. 2.63
2. 9.56
3. -3.62
4. 1.69
5. 0.806
6. -0.168
7. -9.11
